Biological target: pre-existing anti-scFv903 antibodies in human serum H8 (human)
Test: competition ADA bridging ELISA
Each entry below carries its recorded signal change in competition ELISA (% reduction in OD).
Report the value in % with no unit label.

- Binder: "scFv 903 (scFv) scFv: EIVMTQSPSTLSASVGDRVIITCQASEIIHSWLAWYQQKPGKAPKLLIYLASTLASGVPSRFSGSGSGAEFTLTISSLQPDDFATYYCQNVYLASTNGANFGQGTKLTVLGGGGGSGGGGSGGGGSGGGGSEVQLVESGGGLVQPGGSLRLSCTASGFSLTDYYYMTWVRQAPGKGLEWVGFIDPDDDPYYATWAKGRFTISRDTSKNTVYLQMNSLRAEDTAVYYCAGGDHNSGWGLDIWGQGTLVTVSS"
  Unit Tag: "%"
  Value Observed: -87
- Binder: "scFv 961 (scFv) scFv: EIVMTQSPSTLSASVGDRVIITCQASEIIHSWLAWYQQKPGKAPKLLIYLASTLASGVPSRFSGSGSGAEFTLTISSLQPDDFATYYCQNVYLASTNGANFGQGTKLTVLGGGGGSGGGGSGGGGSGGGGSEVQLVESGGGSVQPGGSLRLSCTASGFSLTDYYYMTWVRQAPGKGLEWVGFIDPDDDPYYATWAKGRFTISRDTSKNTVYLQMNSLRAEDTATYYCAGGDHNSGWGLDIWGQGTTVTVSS"
  Unit Tag: "%"
  Value Observed: -89
- Binder: "scFv105 (scFv) scFv: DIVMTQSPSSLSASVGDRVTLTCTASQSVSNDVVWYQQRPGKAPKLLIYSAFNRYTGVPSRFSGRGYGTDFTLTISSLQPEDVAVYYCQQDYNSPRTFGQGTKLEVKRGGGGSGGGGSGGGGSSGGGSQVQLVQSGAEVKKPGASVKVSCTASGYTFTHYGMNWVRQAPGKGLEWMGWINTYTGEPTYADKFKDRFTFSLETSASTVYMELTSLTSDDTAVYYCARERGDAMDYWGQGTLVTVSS"
  Unit Tag: "%"
  Value Observed: -23

Field: next binder
Identify measured signal change in competition ELISA (% reduction in OD) corresponding to scFv 791 (scFv) scFv: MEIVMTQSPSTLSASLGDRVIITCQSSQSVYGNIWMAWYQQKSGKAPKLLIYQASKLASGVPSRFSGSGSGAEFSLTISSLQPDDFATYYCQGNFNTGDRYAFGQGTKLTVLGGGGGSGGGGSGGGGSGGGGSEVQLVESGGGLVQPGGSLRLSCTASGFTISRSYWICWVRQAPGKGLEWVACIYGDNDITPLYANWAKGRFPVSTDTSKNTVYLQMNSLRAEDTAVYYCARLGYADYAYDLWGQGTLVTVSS
-91
